Hey, just so you know, these numbers are from ChEMBL document CHEMBL4689842.

system: Fibroblast; assay: Multiplex assay against human fibroblast; type: toxicity, cell-based; settings: 48 h, 10 µM, compound concentration 10 uM, replicate 1
property: Population Fragmented Nuclei (%)
// return the numeric value with its unit appended

Q: I am curious: what Population Fragmented Nuclei (%) value has been reported for C#Cc1cccc(Nc2ncnc3cc(OCCOC)c(OCCOC)cc23)c1 ?
Result: 41%

Q: I am curious: what Population Fragmented Nuclei (%) value has been reported for Cl.O=C(O)c1cc(-c2ccc(C3CCNCC3)cc2)c2ccc(-c3ccc(C(F)(F)F)cc3)cc2c1 ?
Result: 42%

Q: I am curious: what Population Fragmented Nuclei (%) value has been reported for C[C@]12CC[C@@H]3c4ccc(O)cc4CC[C@H]3[C@@H]1CC[C@@H]2O ?
Result: 36%

Q: I am curious: what Population Fragmented Nuclei (%) value has been reported for CC(C)c1noc(N2CCC(COc3ccc(-c4ccc(S(C)(=O)=O)cc4)nc3)CC2)n1 ?
Result: 27%

Q: I am curious: what Population Fragmented Nuclei (%) value has been reported for CCc1ccc(OCc2ccccc2C(=O)Nc2ccc3nc(C)cc(N)c3c2)cc1.Cl ?
Result: 68%
